Value source: patent EP4803513A1

test system: WT-BaF3 cells; assay: Cell antiproliferative activity assay (CCK-8), WT-BaF3 (broad-spectrum cytotoxicity); format: cell-based; settings: 72 h; WT-BaF3 cells (IL-3 supplemented), CCK-8, 3 days incubation
Let's look at some compounds and their measured IC50.

Here are 6 compounds together with their reported answers.
Cc1nn(CC(N)=O)cc1Nc1ncc2cc(-c3nccnc3C)cc(C3CC3)c2n1: 500 to 2500 nM
Cc1nn(CCO)cc1Nc1ncc2cc(-c3nccnc3F)cc(C(C)C)c2n1: 500 to 2500 nM
Cc1nccnc1-c1cc(C(F)(F)F)c2nc(Nc3cnn(CCO)c3)ncc2c1: > 2500 nM
Cc1nn(CC(C)(C)O)cc1Nc1ncc2cc(-c3c(C)ncnc3C)cc(C(C)C)c2n1: > 2500 nM
COc1cc(Nc2ncc3cc(-c4c(C)ncnc4C)cc(C(C)C)c3n2)ccc1P(C)(C)=O: > 2500 nM
Cc1nn(CCO)cc1Nc1ncc2cc(-c3cc(C#N)cnc3C)cc(C(C)C)c2n1: > 2500 nM

Look up and state reported IC50 for Cc1nn(CCCO)cc1Nc1ncc2cc(-c3nccnc3C)cc(C(C)C)c2n1
500 to 2500 nM

Look up and state reported IC50 for COc1cc(Nc2ncc3cc(-c4nccnc4C)cc(C(C)C)c3n2)ccc1P(C)(C)=O
500 to 2500 nM

Look up and state reported IC50 for Cc1nn(CCO)cc1Nc1ncc2cc(-c3cccnc3C)cc(C(C)C)c2n1
500 to 2500 nM

Look up and state reported IC50 for COc1cc(Nc2ncc3cc(-c4c(C)ncnc4C)cc(C4CC4)c3n2)ccc1P(C)(C)=O
100 to 500 nM

Look up and state reported IC50 for COc1cnccc1-c1cc(C(C)C)c2nc(Nc3cn(CCO)nc3C)ncc2c1
> 2500 nM

Look up and state reported IC50 for COc1ncnc(C)c1-c1cc(C(C)C)c2nc(Nc3cn(CCO)nc3C)ncc2c1
> 2500 nM

Look up and state reported IC50 for Cc1nn(CCO)cc1Nc1ncc2cc(-c3c(Cl)ccnc3N)cc(C(C)C)c2n1
> 2500 nM

====

Let's look at some molecules and their measured pIC50.
tested on: WT-BaF3 cells; assay: Cell antiproliferative activity assay (CCK-8), WT-BaF3 (broad-spectrum cytotoxicity); assay type: cell-based; settings: 72 h; WT-BaF3 cells (IL-3 supplemented), CCK-8, 3 days incubation
pIC50: −log10 of the molar value.

Cc1nn(CC(C)(C)O)cc1Nc1ncc2cc(-c3cccnc3C)cc(C(C)C)c2n1: 6.30 to 7.00
COc1cc(Nc2ncc3cc(-c4nnccc4C)cc(C4CC4)c3n2)ccc1P(C)(C)=O: 6.30 to 7.00
Cc1nccnc1-c1cc(C2CC2)c2nc(Nc3cnn(CCO)c3)ncc2c1: 5.60 to 6.30
COc1cc(Nc2ncc3cc(-c4nccnc4C)cc(C4CC4)c3n2)c(F)cc1P(C)(C)=O: 5.60 to 6.30

Consider the additional molecule presented here.
Look up and state reported pIC50 for Cc1nn(C)cc1Nc1ncc2cc(-c3c[nH]nc3C)cc(C(C)C)c2n1
5.60 to 6.30

====

tested on: T47D cells; assay: Cell antiproliferative activity assay (CCK-8), T47D; type: cell-based; conditions: Homo sapiens, 72 h, breast cancer cell line T47D, incubation for 3 days
Let's look at some molecules and their measured IC50.

Cc1nn(CCO)cc1Nc1ncc2cc(-c3cnoc3C)cc(C(C)C)c2n1: ≤ 500 nM
Cc1nn(CCO)cc1Nc1ncc2cc(-c3c(C)n[nH]c3C)cc(C(C)C)c2n1: 500 to 1000 nM
COc1cc(Nc2ncc3cc(-c4nccnc4C)cc(C4CC4)c3n2)ccc1P(C)(C)=O: ≤ 500 nM
Cc1ccncc1-c1cc(C(C)C)c2nc(Nc3cn(C)nc3C)ncc2c1: ≤ 500 nM
Cc1ccc(C#N)cc1-c1cc(C(C)C)c2nc(Nc3cn(CCO)nc3C)ncc2c1: ≤ 500 nM

Fill in: IC50 on T47D cells, entry [2H]C([2H])([2H])n1cc(Nc2ncc3cc(-c4cc(=O)[nH]cc4C)cc(C(C)C)c3n2)c(C)n1
≤ 500 nM

Fill in: IC50 on T47D cells, entry Cc1ccncc1-c1cc(C(C)C)c2nc(Nc3cnn(CCO)c3C)ncc2c1
≤ 500 nM

Fill in: IC50 on T47D cells, entry COc1cc(Nc2ncc3cc(-c4nccnc4C)cc(C(C)C)c3n2)c(F)cc1P(C)(C)=O
≤ 500 nM

Fill in: IC50 on T47D cells, entry COc1ncncc1-c1cc(C(C)C)c2nc(Nc3cn(CCO)nc3C)ncc2c1
500 to 1000 nM

Fill in: IC50 on T47D cells, entry Cc1ccnnc1-c1cc(C(C)C)c2nc(Nc3cn(C)nc3C)ncc2c1
≤ 500 nM

====

test system: WT-BaF3 cells; assay: Cell antiproliferative activity assay (CCK-8), WT-BaF3 (broad-spectrum cytotoxicity); type: cell-based; conditions: 72 h; WT-BaF3 cells (IL-3 supplemented), CCK-8, 3 days incubation
pIC50: −log10 of the molar value.
parameter: pIC50

Cc1c[nH]c(=O)cc1-c1cc(C(C)C)c2nc(Nc3cn(C)nc3C(F)F)ncc2c1: 5.60 to 6.30
Cc1nn(CC(N)=O)cc1Nc1ncc2cc(-c3nccnc3C)cc(C(C)C)c2n1: < 5.60

Look up and state reported pIC50 for [2H]C([2H])([2H])n1cc(Nc2ncc3cc(-c4nccnc4C)cc(C(C)C)c3n2)c(C)n1
6.30 to 7.00

Look up and state reported pIC50 for Cc1ncnc(C)c1-c1cc(C(C)C)c2nc(Nc3ccc(P(C)(C)=O)cc3)ncc2c1
< 5.60

Look up and state reported pIC50 for Cc1c[nH]c(=O)cc1-c1cc(C(C)C)c2nc(Nc3cn(C)nc3C)ncc2c1
< 5.60

Look up and state reported pIC50 for Cc1nccnc1-c1cc(C(C)C)c2nc(Nc3ccc(P(C)(C)=O)cn3)ncc2c1
< 5.60

Look up and state reported pIC50 for Cc1nccnc1-c1cc(C(C)C)c2nc(Nc3ccc(P(C)(C)=O)cc3F)ncc2c1
< 5.60

Look up and state reported pIC50 for Cc1nccnc1-c1cc(C2CC2)c2nc(Nc3ccc(P(C)(C)=O)cc3F)ncc2c1
< 5.60

====

Let's look at some compounds and their measured IC50.
system: T47D cells; experiment: Cell antiproliferative activity assay (CCK-8), T47D; assay type: cell-based; details: Homo sapiens, 72 h, breast cancer cell line T47D, incubation for 3 days

Here are 4 compounds together with their reported answers.
Cc1nccnc1-c1cc(C(C)C)c2nc(Nc3cn(C)nc3C(F)F)ncc2c1 [III-102]: 500 to 1000 nM
Cc1nn(CCO)cc1Nc1ncc2cc(-c3cccnc3N)cc(C(C)C)c2n1 [I-27]: 500 to 1000 nM
Cc1ccc(-c2cc(C(C)C)c3nc(Nc4cn(CCO)nc4C)ncc3c2)c(F)n1 [I-39]: ≤ 500 nM
Cc1nn(C)cc1Nc1ncc2cc(-c3cncnc3C)cc(C(C)C)c2n1 [III-92]: ≤ 500 nM

Look up and state reported IC50 for Cc1ccncc1-c1cc(C(C)C)c2nc(Nc3cn(CCO)nc3C)ncc2c1 [I-32]
≤ 500 nM

Look up and state reported IC50 for COc1cc(Nc2ncc3cc(-c4cccnc4C)cc(C4CC4)c3n2)ccc1P(C)(C)=O [II-64]
≤ 500 nM

Look up and state reported IC50 for COc1nc(Nc2ncc3cc(-c4nccnc4C)cc(C4CC4)c3n2)ccc1P(C)(C)=O [II-71]
≤ 500 nM

Look up and state reported IC50 for Cc1nn(C)cc1Nc1ncc2cc(-c3cn(C)nc3C)cc(C(C)C)c2n1 [III-87]
≤ 500 nM

Look up and state reported IC50 for Cc1c[nH]c(=O)cc1-c1cc(C(C)C)c2nc(Nc3cn(C)nc3C(F)F)ncc2c1 [III-4]
500 to 1000 nM

====

system: WT-BaF3 cells; assay: Cell antiproliferative activity assay (CCK-8), WT-BaF3 (broad-spectrum cytotoxicity); type: cell-based; settings: 72 h; WT-BaF3 cells (IL-3 supplemented), CCK-8, 3 days incubation
pIC50: −log10 of the molar value.
Let's look at some compounds and their measured pIC50.

Cc1ccnc(N)c1-c1cc(C(C)C)c2nc(Nc3cn(CCO)nc3C)ncc2c1 [I-50]: < 5.60
Cc1nn(CCO)cc1Nc1ncc2cc(-c3cncc(F)c3C)cc(C(C)C)c2n1 [I-36]: 5.60 to 6.30
COc1ncccc1-c1cc(C(C)C)c2nc(Nc3cn(CCO)nc3C)ncc2c1 [I-25]: < 5.60
CCOc1cc(Nc2ncc3cc(-c4nccnc4C)cc(C4CC4)c3n2)ccc1P(C)(C)=O [II-72]: 5.60 to 6.30

Consider the additional compound presented here.
Look up and state reported pIC50 for Cc1ccnnc1-c1cc(C2CC2)c2nc(Nc3cn(CCO)nc3C)ncc2c1 [I-119]
5.60 to 6.30
